# SYSTEM_TESTED: human adenosine A2a receptor (Homo sapiens)
# Sequence (P29274 whole entry): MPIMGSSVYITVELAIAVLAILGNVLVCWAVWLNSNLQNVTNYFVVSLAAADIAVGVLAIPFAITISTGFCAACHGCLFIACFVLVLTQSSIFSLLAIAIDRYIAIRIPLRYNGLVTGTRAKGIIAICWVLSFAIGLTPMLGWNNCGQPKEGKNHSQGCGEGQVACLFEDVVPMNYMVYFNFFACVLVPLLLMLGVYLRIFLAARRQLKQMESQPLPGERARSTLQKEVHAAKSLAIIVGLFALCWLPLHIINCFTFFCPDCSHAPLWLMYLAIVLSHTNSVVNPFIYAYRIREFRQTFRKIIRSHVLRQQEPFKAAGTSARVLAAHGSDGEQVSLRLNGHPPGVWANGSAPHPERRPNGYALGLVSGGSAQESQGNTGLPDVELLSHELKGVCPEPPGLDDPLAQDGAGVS
# ASSAY_INFO: Adenosine A2a receptor whole cell cyclic AMP assay
# MEASUREMENT_SETUP: A2a @ 1 μM Adenosine (A2a cAMP IC50), HEK293 cells stably expressing human A2a; 1 μM adenosine; 1 hour compound treatment
OBSERVABLE: IC50

{"MOLECULE": "Cc1ccnc2ccc(-c3c(-c4ccc(F)cc4F)nc(N)c4nnnn34)cc12 [1-43]", "ASSAY_RESULT": "< 100 nM"}
{"MOLECULE": "Cc1ccnc2ccc(-c3c(-c4ccc(C#N)cc4)nc(N)c4nnnn34)cc12 [1-44]", "ASSAY_RESULT": "< 100 nM"}

Query: Endpoint output: IC50 of N#Cc1cc(-c2c(-c3ccc(F)cc3)nc(N)n3nnnc23)cc(Cl)n1 [1-41] . Value?
Response: 100 to 1000 nM
